# assay.method.text: Distribution coefficient, log D at pH 6.5
# Assay type: physicochemical
# measurement.context: octanol/water
quantity.name: logD
// no unit, no text: just the number

Quick note, logD for Cc1ccc(-n2nc(C(C)(C)C)cc2NC(=O)Nc2ccc(OCCN3CCOCC3)c3ccccc23)cc1 landed at 4.9
